Origin of the recorded values: patent US20090118332A1

- ASSAY SYSTEM: human Fatty Acid Synthase (Homo sapiens)
- Construct: made in house
- Sequence (P49327 whole entry): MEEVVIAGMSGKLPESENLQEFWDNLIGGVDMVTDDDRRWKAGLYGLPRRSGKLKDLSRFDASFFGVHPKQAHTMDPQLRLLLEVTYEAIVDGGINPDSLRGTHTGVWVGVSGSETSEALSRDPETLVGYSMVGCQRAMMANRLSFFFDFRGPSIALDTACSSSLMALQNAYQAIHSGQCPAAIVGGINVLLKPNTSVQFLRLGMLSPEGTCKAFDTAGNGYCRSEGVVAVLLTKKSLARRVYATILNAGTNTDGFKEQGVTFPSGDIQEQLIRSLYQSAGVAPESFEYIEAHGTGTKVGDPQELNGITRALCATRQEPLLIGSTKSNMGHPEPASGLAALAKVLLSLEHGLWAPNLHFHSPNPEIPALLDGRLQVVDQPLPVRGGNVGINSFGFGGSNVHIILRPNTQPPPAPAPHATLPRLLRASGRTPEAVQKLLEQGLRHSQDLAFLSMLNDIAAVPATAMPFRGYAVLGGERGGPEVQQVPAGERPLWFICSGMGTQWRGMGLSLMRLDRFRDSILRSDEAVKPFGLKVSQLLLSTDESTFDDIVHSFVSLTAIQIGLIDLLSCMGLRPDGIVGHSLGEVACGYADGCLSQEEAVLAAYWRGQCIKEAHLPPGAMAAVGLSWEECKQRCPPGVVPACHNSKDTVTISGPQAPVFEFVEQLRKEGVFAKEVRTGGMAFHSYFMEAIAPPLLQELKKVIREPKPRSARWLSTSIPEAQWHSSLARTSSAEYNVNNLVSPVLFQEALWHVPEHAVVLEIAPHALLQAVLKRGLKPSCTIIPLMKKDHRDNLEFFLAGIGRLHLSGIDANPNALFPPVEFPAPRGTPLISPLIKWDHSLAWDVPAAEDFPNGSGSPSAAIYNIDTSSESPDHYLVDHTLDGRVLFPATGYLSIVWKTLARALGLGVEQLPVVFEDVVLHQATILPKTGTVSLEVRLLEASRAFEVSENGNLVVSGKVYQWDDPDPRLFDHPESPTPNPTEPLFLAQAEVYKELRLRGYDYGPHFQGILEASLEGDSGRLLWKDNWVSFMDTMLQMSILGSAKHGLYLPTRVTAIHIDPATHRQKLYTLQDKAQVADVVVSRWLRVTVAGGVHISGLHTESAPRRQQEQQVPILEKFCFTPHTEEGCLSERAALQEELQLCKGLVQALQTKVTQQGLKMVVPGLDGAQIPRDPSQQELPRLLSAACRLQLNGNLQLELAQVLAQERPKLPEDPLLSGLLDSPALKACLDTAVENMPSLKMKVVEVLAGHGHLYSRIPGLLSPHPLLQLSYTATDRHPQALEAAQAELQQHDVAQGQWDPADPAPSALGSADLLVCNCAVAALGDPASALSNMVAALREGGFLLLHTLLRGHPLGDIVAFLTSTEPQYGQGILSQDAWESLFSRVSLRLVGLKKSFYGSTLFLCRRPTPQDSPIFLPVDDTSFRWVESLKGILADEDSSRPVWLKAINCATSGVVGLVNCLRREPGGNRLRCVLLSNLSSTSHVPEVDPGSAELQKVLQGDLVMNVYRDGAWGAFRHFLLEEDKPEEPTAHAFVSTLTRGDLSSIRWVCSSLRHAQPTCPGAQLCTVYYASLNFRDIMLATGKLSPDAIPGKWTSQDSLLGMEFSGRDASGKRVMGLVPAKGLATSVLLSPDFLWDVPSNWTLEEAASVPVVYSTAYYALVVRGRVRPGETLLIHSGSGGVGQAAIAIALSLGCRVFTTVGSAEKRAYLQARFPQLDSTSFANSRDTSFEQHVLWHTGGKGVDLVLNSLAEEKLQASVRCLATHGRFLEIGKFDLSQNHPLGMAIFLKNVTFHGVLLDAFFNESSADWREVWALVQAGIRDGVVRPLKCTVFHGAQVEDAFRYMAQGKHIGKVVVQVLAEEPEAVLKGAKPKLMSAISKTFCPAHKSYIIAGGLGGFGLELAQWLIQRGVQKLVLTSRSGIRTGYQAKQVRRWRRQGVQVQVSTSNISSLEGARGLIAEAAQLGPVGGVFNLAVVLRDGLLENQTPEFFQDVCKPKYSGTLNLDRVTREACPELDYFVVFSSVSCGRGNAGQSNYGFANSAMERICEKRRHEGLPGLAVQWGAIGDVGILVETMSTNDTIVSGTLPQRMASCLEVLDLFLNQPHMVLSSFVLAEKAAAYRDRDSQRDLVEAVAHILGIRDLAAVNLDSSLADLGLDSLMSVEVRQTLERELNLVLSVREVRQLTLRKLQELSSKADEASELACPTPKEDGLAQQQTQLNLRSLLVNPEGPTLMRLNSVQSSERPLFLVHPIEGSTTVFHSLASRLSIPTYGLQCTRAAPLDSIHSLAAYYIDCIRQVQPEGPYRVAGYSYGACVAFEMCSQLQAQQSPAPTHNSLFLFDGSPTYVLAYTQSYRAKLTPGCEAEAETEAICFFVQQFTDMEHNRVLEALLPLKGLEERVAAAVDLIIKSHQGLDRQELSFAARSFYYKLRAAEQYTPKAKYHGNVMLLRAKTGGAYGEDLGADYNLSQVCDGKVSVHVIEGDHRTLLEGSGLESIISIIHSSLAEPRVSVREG
- MEASUREMENT NOTES: Human FAS enzyme assay (decrease in NADPH fluorescence)
- Type: biochemical
- EXPERIMENTAL SETUP: % inhibition at a concentration of 100 μmolar
- From the text: Human and Rat FAS Enzyme Assay. Fatty acid synthase is an enzyme complex that harbours seven enzymatic activities catalysing the reductive synthesis of long chain fatty acids from acetyl CoA and malonyl CoA to palmitate. When acetyl CoA and malonyl CoA are forming palmitate NADPH is consumed forming NADP. Since NADPH is fluorescent but not NADP the reaction can be measured by analysing the decrease in fluorescence. […]
EXPERIMENTAL ENDPOINT: inhibition at 100 µM (%)

{"MOLECULE": "Cc1ccc(NC(=O)N(C)C)cc1C(=O)N1CCC(c2ccc(C#N)cc2)CC1 [Example 380]", "EXPERIMENTAL ENDPOINT": "inhibition at 100 µM", "MEASURED RESULT": 74.8}
{"MOLECULE": "Cc1ccc(C(=O)N2CCC(c3ccc(C#N)cc3)CC2)cc1NC(=O)NCC(F)(F)F [Example 168]", "EXPERIMENTAL ENDPOINT": "inhibition at 100 µM", "MEASURED RESULT": 84.6}
{"MOLECULE": "Cc1ccc(C(=O)N2CCC(c3ccc(C#N)cc3)CC2)cc1NC(=O)NCCCc1cn[nH]c1C [Example 200]", "EXPERIMENTAL ENDPOINT": "inhibition at 100 µM", "MEASURED RESULT": 91.8}
{"MOLECULE": "Cc1ccc(C(=O)N2CCC(c3ccc(C#N)cc3)CC2)cc1NC(=O)N(C)Cc1ccccc1 [Example 381]", "EXPERIMENTAL ENDPOINT": "inhibition at 100 µM", "MEASURED RESULT": 71.1}
{"MOLECULE": "Cc1ccc(C(=O)N2CCC(c3ccc(C#N)cc3)CC2)cc1NC(=O)NCC(C)(C)NS(C)(=O)=O [Example 202]", "EXPERIMENTAL ENDPOINT": "inhibition at 100 µM", "MEASURED RESULT": 97.3}
{"MOLECULE": "Cc1ccc(C(=O)N2CCC(c3ccc(C#N)cc3)CC2)cc1NC(=O)NCc1ccc(-c2csnn2)cc1 [Example 75]", "EXPERIMENTAL ENDPOINT": "inhibition at 100 µM", "MEASURED RESULT": 87.4}
{"MOLECULE": "CC(=O)NCCNC(=O)Nc1cc(C(=O)N2CCC(c3ccc(F)cc3)CC2)ccc1C [Example 338]", "EXPERIMENTAL ENDPOINT": "inhibition at 100 µM", "MEASURED RESULT": 81.3}
{"MOLECULE": "COCCN1CCC(NC(=O)Nc2cc(C(=O)N3CCC(c4ccc(C#N)cc4)CC3)ccc2C)CC1 [Example 147]", "EXPERIMENTAL ENDPOINT": "inhibition at 100 µM", "MEASURED RESULT": 79.5}
{"MOLECULE": "Cc1ccc(C(=O)N2CCC(c3ccc(C(=O)N(C)C)cc3)CC2)cc1NC(=O)NCc1ccccc1 [Example 123]", "EXPERIMENTAL ENDPOINT": "inhibition at 100 µM", "MEASURED RESULT": 79.7}
{"MOLECULE": "Cc1ccc(C(=O)N2CCC(c3ccc(C#N)cc3)CC2)cc1NC(=O)NCCNC(=O)OCc1ccccc1 [Example 81]", "EXPERIMENTAL ENDPOINT": "inhibition at 100 µM", "MEASURED RESULT": 88.2}
